Reference source: the supplement of paper PMC9112550

# reported shrunken log2 fold change; entries follow
Test system: Escherichia coli TOP10;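 also: peptides expressed intracellularly from a pBAD plasmid library in pooled LB shake-flask culture, induced with 0.3% L-arabinose, DNA abundance read by NGS, three biological replicates, DESeq2 with apeglm shrinkage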
Experiment: shrunken log2 fold change of peptide-encoding DNA abundance (4.5 h post-induction vs induction); higher = less antimicrobial activity (less host growth inhibition)
Conditions: time post-induction: 4.5 h; library: site-saturation at positions 5, 18, 19, 20
Kindly provide the number alone.

Worked examples, 5 sequences total:
[[record]]
entry_sequence = "RRIRIRPPRLPRPRPRPCTFPRP"
system_under_test = "Escherichia coli TOP10"
recorded_metric = "shrunken log2 fold change"
quantitative_readout = -0.212

[[record]]
entry_sequence = "RRIRDRPPRLPRPRPRPRYWPRP"
system_under_test = "Escherichia coli TOP10"
recorded_metric = "shrunken log2 fold change"
quantitative_readout = 0.152

[[record]]
entry_sequence = "RRIRPRPPRLPRPRPRPYRTPRP"
system_under_test = "Escherichia coli TOP10"
recorded_metric = "shrunken log2 fold change"
quantitative_readout = -0.111

[[record]]
entry_sequence = "RRIRKRPPRLPRPRPRPYAAPRP"
system_under_test = "Escherichia coli TOP10"
recorded_metric = "shrunken log2 fold change"
quantitative_readout = -0.102

[[record]]
entry_sequence = "RRIRSRPPRLPRPRPRPPAMPRP"
system_under_test = "Escherichia coli TOP10"
recorded_metric = "shrunken log2 fold change"
quantitative_readout = 0.344


[Q] Given the sequence `RRIRMRPPRLPRPRPRPWDEPRP` , write its reported shrunken log2 fold change.
[A] 0.391

[Q] Given the sequence `RRIRLRPPRLPRPRPRPNTFPRP` , write its reported shrunken log2 fold change.
[A] -0.348

[Q] Given the sequence `RRIRFRPPRLPRPRPRPNLFPRP` , write its reported shrunken log2 fold change.
[A] -0.0917

[Q] Given the sequence `RRIRSRPPRLPRPRPRPNPKPRP` , write its reported shrunken log2 fold change.
[A] 0.0189

[Q] Given the sequence `RRIRSRPPRLPRPRPRPTLQPRP` , write its reported shrunken log2 fold change.
[A] 0.128

[Q] Given the sequence `RRIRCRPPRLPRPRPRPDYFPRP` , write its reported shrunken log2 fold change.
[A] -0.248
